Test system: Alternaria solani
Assay: Alternaria test (tomato) / protective
Type: in vivo
Details: 500 ppm active compound, protective spray, evaluated 7 days after inoculation
Protocol: Alternaria Test (Tomato)/Protective Solvent: 49 parts by weight of N,N-dimethylformamide Emulsifier: 1 part by weight of alkylaryl polyglycol ether To produce a suitable preparation of active compound, 1 part by weight of active compound is mixed with the stated amounts of solvent and emulsifier, and the concentrate is diluted with water to the desired concentration. […]
Exercise: for every item that follows, state its recorded efficacy.

Query: Report efficacy for CCC(C)C(=O)Nc1cc(-c2cn(C(C)C)nc2-c2ccc(Cl)s2)ccn1 (stereo not drawn) [Example 249]
Reply: 95%

Query: Report efficacy for CC(C)n1cc(-c2ccnc(NC3COC3)n2)c(-c2ccc(Cl)s2)n1 [Example 179]
Reply: 80%

Query: Report efficacy for CCC(C)n1cc(-c2ccnc(NC(=O)OC(C)C)c2)c(-c2ccc(Cl)s2)n1 (stereo not drawn) [Example 239]
Reply: 80%

Query: Report efficacy for CCC(C)n1cc(-c2ccnc(NC(=O)C3CCC3)c2)c(-c2ccc(Cl)s2)n1 (stereo not drawn) [Example 240]
Reply: 95%

Query: Report efficacy for CC(C)Cn1cc(-c2cc(N)ncn2)c(-c2ccc(Cl)s2)n1 [Example 423]
Reply: 94%

Query: Report efficacy for CCn1cc(-c2ccnc(NC(=O)CC3CC3)c2)c(-c2ccc(Cl)s2)n1 [Example 253]
Reply: 95%

Query: Report efficacy for Cc1c(-c2ccncc2)c(-c2ccc(Cl)s2)nn1C(C)C [Example 145]
Reply: 100%

Query: Report efficacy for CC(C)n1cc(-c2ccnc(NC(=O)C(C)(C)C)c2)c(-c2ccc(Cl)s2)n1 [Example 233]
Reply: 90%

Query: Report efficacy for CC(C)Cn1cc(-c2ccnc(NC(=O)C3CC3)c2)c(-c2ccc(Cl)s2)n1 [Example 359]
Reply: 94%

Query: Report efficacy for CCC(C)n1nc(-c2ccc(Cl)s2)c(-c2ccncc2)c1F (stereo not drawn) [Example 213]
Reply: 80%

Query: Report efficacy for C=CC(C)n1cc(-c2ccncc2)c(-c2ccc(F)s2)n1 (stereo not drawn) [Example 376]
Reply: 100%

Query: Report efficacy for Cc1ccc(-c2nn(C(C)C)cc2-c2ccncc2)s1 [Example 199]
Reply: 89%

Values from patent US8685974B2
